# assay-procedure: NCI Yeast Anticancer Drug Screen. Data for the sgs1 mgt1 strain (AID 161);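 further: 0% = growth of cultures given vehicle only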
# protocol-conditions: S. cerevisiae sgs1 mgt1 strain, at 50.0 µM, hits give high values
The panel holds about 79,000 compounds, 15% with a hit somewhere; the sample as a whole holds those more often.
Entries and their growth inhibition values follow.

{"columns": ["molecule", "growth inhibition / %"],
 "data": [
  ["O=C(C(=O)c1ccncc1)c1ccccc1", -5.6],
  ["O/N=C/c1cc(Cl)cc(Cl)c1O", 98],
  ["CCC1(C)CCC2(C)C(CCC3C4(C)CCCC32OC4=O)C1 (centres undefined)", 96.8],
  ["COC(=O)c1[nH]c(=O)c(C#N)c(C(=O)OC)c1C(=O)c1ccc(Cl)c(Cl)c1", 95.4],
  ["C[Si](C)(c1ccccc1)C1CC(=O)CC(=O)C1", 69.5],
  ["CC1=CC2C(O)(CC(CO)=CC3C4C(C)(C)C4(OC(=O)c4ccccc4)C(OC(=O)c4ccccc4)C(C)C32O)C1=O (centres undefined)", 92],
  ["Clc1cc(Cl)c(NN=C(c2ccccc2)c2ccccc2)c(Cl)c1", 99.7],
  ["CN(C)c1ccc(C(O)(Cc2cccc(C#N)c2)c2ccc(N(C)C)cc2)cc1", 52.8],
  ["C/C=C(\\C)C(=O)OC1C(C)C2(O)C(C=C(CO)CC3(O)C(=O)C(C)=CC32)C2C(C)(C)C12OC(=O)CCCCCCCCC (centres undefined)", 83.4],
  ["C/C(=N/O)c1cc([N+](=O)[O-])c(O)cc1O", 89.2],
  ["O=C(c1ccco1)N(C(=S)N1CCN(c2ccccn2)CC1)c1ccccc1", 63.4],
  ["CCN(CC)CC(C)(C)C(=O)/C=C/c1ccc(Cl)c(Cl)c1", 98],
  ["NC(=O)/C=C/C(=O)c1c(Cl)cccc1Cl", 91.7],
  ["COc1ccc([N+](=O)[O-])cc1[I+]c1cc([N+](=O)[O-])ccc1OC", 92.2],
  ["COc1c2occc2c(OC)c2c(C)c(C(=O)OCCN3CCOCC3)oc12", 28.1],
  ["OCc1ccc(OCc2ccccc2)c(OCc2ccccc2)c1", 92.8],
  ["CC1(C)CC([P+](c2ccccc2)(c2ccccc2)c2ccccc2)=NN1", 79.5],
  ["COC(=O)c1nc(=S)[nH]c(C(=O)OC)c1C(=O)c1ccccn1", 84.5],
  ["CC12CCCC1C1CC=C3CC(OC=O)CCC3(C)C1CC2 (centres undefined)", 40.9],
  ["O=C(Cn1cnc2ccc([N+](=O)[O-])cc21)N1CCN(c2ccccc2)CC1", 12.1],
  ["O=C1c2c(O)ccc(O)c2C(=O)c2c(O)ccc(O)c21", 12.3],
  ["N#Cc1c(SCc2ccc(Cl)cc2)nsc1Nc1ccc(Cl)cc1", 87.2],
  ["CC1=C(C(=O)Nc2ccccc2)C(c2cccc([N+](=O)[O-])c2)C(C(=O)Nc2ccccc2)=C(C)N1", 19.1],
  ["CCN(CC)CCN1C(=O)c2c(c3c4cccc(Cl)c4n(C4OC(CO)C(OC)C(O)C4O)c3c3[nH]c4c(Cl)cccc4c23)C1=O (centres undefined)", 90.5],
  ["CN(C)N=Nc1ccc(Cl)c2ncccc12", -2.45],
  ["S=C(N/N=C/c1ccccn1)Nc1ccccn1", 91.5],
  ["CCCCCCCN(CCCCCCC)CC(O)c1ccc2ccc3ccccc3c2c1 (centres undefined)", 81.2],
  ["C=CC(=O)NC(=O)Nc1ccc(Cl)cc1", 98.9],
  ["NC(N)=N/N=C/c1ccc([N+](=O)[O-])o1", 70.2],
  ["O=C(O)C1CC2C3(Cl)C(Cl)=C(Cl)C(Cl)C2(CC1c1c2ccc(=O)c(O)c-2oc2c(O)c(O)ccc12)C3(Cl)Cl (centres undefined)", -0.25],
  ["CCCCCC/C=C\\CCCCCCCCCC1=C(CN2CCN(C)CC2)C(=O)C=C(OC)C1=O", 90.3],
  ["CC1=NN(c2nc(N)nc(C(C)Sc3cc(Cl)c(C)cc3S(N)(=O)=O)n2)C(C)(C)C1 (centres undefined)", -10.6],
  ["COc1ccc(C(SCC(N)C(=O)O)(c2ccc(OC)cc2)c2ccc(OC)cc2)cc1 (centres undefined)", 96.3],
  ["Cc1ccc2nc(C[n+]3ccc4ccccc4c3)ccc2c1", 44.4],
  ["CCOC(=O)N1CCN(CCCOc2ccc(Cl)cc2Cc2ccccc2)CC1", 99.8],
  ["CCOc1ccccc1-c1nc2c(s1)C(=O)c1ccccc1C2=O", 92],
  ["Cc1ccc2c(c1)[n+]([O-])c(N)c(C#N)[n+]2[O-]", 36.3],
  ["O=S(=O)(O)c1cc2ccccc2c(O)c1N=Nc1ccccc1", -3.25],
  ["CCOc1ncc(Cl)c(OCC)n1", -28.2],
  ["C=Cc1ccc(B2NCCO2)cc1", 99.6],
  ["C/C=C1\\SC(=S)NC1=O", 99.2],
  ["O=[N+]([O-])c1ccc2c(c1)Cc1cc(O)c(I)cc1-2", 96.7],
  ["CN1CCN(CCOC(=O)N2c3ccccc3Sc3ccccc32)CC1", 45.5],
  ["c1cc[c]([Sn]([S]c2cccc3cccnc23)([S]c2cccc3cccnc23)[c]2ccccc2)cc1", 98]
]}

###

# assay-procedure: NCI Yeast Anticancer Drug Screen. Data for the rad50 strain (AID 155);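 further: 0% = growth of vehicle-only cultures of the same strain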
# protocol-conditions: S. cerevisiae rad50 strain growth inhibition; at 50.0 µM; hits give high values
Compounds without any hit were thinned out: in the full panel of roughly 79,000, 15% have a hit.
Answer NOT MET if growth inhibition is under 90%, and MET if it is 90% or more.

{"columns": ["compound", "qualitative-label"],
 "data": [
  ["Cc1cc(Cl)c(O)c(-c2cc(-c3cccc([N+](=O)[O-])c3)c3c(N)[nH]c(=S)nc3n2)c1", "NOT MET"],
  ["CC(C)c1ccc(C(=O)OC2CCCCC2)cc1", "NOT MET"],
  ["NNC(=S)NN/C=C(\\C=Nc1ccccc1)[N+](=O)[O-]", "NOT MET"],
  ["O=[N+]([O-])c1ccc(N/N=C/COCCO)c([N+](=O)[O-])c1", "NOT MET"],
  ["O=C(Nc1ccc(S(=O)(=O)NC2CCCCC2)cc1)OC1CCCCC1", "MET"],
  ["COC(=O)c1cc(-c2ccccc2)[nH]c(=O)c1C#N", "NOT MET"],
  ["Cc1ccc(SSCCCCCS(=O)O)cc1", "NOT MET"],
  ["Nc1ccc2c(c1)[nH]c(=O)c1cccc(Cl)c12", "MET"],
  ["COC/C(Br)=C\\SC#N (tested in a mixture with another compound)", "MET"]
]}

###

# assay-procedure: NCI Yeast Anticancer Drug Screen. Data for the mec2-1 strain (AID 157)
# protocol-conditions: S. cerevisiae mec2-1 strain, at 50.0 µM (retest, dose inferred, filed as 5.0), hits give high values
This is part of a sample that, as a whole, favours compounds with a hit. Of some 79,000 tested, about 15% had one in any assay.
growth inhibition of 70% or higher: 1. Under 70%: 0.

{"columns": ["compound", "qualitative-label"],
 "data": [
  ["CCN(CC)Cc1cc(N=Nc2c(O)ccc3c(N=Nc4ccc(O)c(CN(CC)CC)c4)c(O)ccc23)ccc1O", 0],
  ["Cc1ccc(NS(=O)(=O)c2ccc(C)cc2)cc1", 1],
  ["Nc1nc(N)c2c(ccc3c2ccn3Cc2cccc([N+](=O)[O-])c2)n1", 1],
  ["Nc1ccc(SSc2ccc(N)cc2)cc1", 1],
  ["CC(=O)Nc1ccc(/S(=N\\S(=O)(=O)c2ccc(C)cc2)c2ccc(NC(C)=O)cn2)cc1 (configuration not stated)", 0],
  ["COc1cc(/C=C2/SC(=S)NC2=O)cc(OC)c1O", 0],
  ["CC(C)(CN1CCCCC1)C(=O)CC(SCCS(=O)(=O)O)c1ccc(Cl)cc1 (configuration not stated)", 1],
  ["Cc1ccc(/C=C2\\CN(C)CC3=C2NC(=S)NC3c2ccc(C)cc2)cc1 (configuration not stated)", 0],
  ["O=c1cccccc1[O-].O=c1cccccc1[O-].O=c1cccccc1[O-].[Sm+3]", 0],
  ["CN(C)CC1CCC/C(=C\\c2ccc(Cl)cc2)C1=O (configuration not stated)", 1],
  ["CC12CC(Br)(Br)C(=O)C3C1CCCC32", 0],
  ["CC1OC2CC(=O)OC2C2=C1C(=O)c1c(O)cccc1C2=O (configuration not stated)", 1],
  ["COc1ccc(OC)c(N=Nc2c(C)[nH]n(C(N)=S)c2=O)c1", 0],
  ["CC(C)=Cc1cc2c(cc1O)CCC1C2CC[C@@]2(C)C1CC[C@@H]2O (some centres not stated)", 0],
  ["CC(C)(Sc1cc(Cl)c(Cl)c(Cl)c1)C(=O)OCCN1CCOCC1", 1],
  ["CCS(CC)(CC)CC1CCCC2=CCC(P(=O)(c3ccccc3)c3ccccc3)CC21 (configuration not stated)", 0],
  ["C1=C(c2ccccc2)C(c2ccc(OCCN3CCCCC3)cc2)Oc2ccccc21 (configuration not stated)", 1],
  ["C[N+](C)([O-])CCOc1cc2c(c3ccccc13)-c1ccccc1C2=O", 0],
  ["O=S(=O)(O)c1cc(N=Nc2ccc(O)c(O)c2)ccc1/C=C/c1ccc(N=Nc2ccc(O)c(O)c2)cc1S(=O)(=O)O", 1],
  ["COc1cc(/C=C(/C)C[N+](=O)[O-])ccc1O", 1]
]}
